Target: T1, human topoisomerase I (human, UniProt P11387 1-765, limits assumed)
T1 construct: also called top1; top 1
T1 sequence (looked up): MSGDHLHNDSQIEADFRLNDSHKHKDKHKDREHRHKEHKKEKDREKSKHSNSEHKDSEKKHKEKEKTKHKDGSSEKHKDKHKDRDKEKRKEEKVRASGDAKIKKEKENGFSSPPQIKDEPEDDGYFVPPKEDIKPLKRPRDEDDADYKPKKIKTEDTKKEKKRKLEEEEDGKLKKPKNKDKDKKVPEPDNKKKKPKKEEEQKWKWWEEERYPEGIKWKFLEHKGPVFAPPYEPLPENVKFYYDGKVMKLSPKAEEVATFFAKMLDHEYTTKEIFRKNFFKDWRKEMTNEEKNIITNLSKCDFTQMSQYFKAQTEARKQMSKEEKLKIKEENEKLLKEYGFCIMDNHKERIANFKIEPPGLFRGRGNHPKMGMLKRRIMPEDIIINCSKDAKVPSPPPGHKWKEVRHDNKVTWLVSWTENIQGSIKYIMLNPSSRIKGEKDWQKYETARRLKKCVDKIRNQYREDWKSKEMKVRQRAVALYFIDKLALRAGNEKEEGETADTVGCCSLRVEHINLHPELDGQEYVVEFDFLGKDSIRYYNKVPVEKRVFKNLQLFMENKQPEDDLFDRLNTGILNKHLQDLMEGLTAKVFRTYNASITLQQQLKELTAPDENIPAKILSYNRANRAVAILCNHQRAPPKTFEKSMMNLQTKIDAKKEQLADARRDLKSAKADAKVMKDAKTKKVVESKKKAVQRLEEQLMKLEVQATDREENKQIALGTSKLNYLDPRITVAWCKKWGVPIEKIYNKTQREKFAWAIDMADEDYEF
Test: SPR (BIAcore 2000), T1BP2 on CM5 chip, top1 as analyte, Langmuir model
pKd: −log10 of the molar value.
PARAMETER: pKd

BINDER	NUMBER
SAYAATVRGPLSSAS (Coupled to a CM5 chip for SPR; also called T1PB2; CPP3) [T1BP2]	6.18

Source: patent US20100137221A1
